# system_tested: PI3K (p110β/p85α) (Homo sapiens, UniProt P42338)
# Sequence (P42338 whole entry): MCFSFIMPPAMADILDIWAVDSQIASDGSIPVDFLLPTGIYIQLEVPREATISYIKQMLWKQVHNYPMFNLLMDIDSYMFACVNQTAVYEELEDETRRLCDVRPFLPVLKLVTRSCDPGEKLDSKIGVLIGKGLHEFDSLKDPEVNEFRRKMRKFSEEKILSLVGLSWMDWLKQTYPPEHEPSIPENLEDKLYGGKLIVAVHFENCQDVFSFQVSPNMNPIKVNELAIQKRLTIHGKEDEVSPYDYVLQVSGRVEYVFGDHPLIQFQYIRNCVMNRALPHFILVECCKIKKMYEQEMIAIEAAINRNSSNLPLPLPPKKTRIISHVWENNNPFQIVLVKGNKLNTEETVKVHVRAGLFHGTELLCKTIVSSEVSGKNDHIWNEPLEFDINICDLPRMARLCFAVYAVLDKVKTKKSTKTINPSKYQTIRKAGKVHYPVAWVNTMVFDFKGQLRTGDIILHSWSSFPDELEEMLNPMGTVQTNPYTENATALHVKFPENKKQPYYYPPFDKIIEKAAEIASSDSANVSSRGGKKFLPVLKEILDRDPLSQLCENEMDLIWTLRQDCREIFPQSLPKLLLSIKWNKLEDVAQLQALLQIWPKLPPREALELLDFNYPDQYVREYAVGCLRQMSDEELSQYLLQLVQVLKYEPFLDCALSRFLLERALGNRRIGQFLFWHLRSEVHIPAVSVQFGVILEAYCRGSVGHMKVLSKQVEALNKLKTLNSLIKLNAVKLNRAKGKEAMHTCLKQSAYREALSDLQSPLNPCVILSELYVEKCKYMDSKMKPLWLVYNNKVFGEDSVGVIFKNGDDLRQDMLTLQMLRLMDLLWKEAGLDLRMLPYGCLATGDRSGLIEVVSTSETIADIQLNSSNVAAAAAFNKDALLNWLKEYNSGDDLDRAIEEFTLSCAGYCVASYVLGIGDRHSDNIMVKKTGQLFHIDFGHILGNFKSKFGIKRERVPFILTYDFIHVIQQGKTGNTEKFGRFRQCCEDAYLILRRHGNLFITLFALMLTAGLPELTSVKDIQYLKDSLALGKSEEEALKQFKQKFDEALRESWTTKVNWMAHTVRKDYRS
# Sequence (P27986 whole entry partner): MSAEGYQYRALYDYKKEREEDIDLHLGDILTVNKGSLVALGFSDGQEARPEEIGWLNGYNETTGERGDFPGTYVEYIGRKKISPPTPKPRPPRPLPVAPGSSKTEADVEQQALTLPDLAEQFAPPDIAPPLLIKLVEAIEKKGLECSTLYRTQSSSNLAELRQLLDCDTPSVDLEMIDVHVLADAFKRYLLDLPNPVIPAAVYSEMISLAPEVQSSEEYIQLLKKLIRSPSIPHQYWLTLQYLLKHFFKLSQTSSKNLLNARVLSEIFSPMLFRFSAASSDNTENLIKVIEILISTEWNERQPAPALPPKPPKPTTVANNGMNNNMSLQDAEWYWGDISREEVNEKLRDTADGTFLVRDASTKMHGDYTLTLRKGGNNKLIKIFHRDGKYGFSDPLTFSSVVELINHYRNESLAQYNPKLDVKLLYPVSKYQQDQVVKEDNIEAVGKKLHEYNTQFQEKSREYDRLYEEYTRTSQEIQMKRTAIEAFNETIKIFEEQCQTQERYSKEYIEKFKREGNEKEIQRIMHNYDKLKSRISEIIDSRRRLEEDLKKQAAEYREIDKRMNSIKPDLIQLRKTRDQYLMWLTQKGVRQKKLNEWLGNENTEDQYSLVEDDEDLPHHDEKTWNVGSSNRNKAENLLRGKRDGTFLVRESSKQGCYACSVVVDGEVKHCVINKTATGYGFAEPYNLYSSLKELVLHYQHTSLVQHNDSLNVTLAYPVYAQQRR
# experimental_details: PI3Kβ assay (ADP-Glo Kinase Assay)
# Format: biochemical
# applied_conditions: read-out: Enzyme activity IC50 PI3Kβ
Attribute: IC50
Answer in µM, number only, no unit symbol.

Recorded results for 5 compounds are shown here.
Cc1nc([C@@H](C)c2cc(Cl)c(F)c(C(=O)NC[C@@H]3CCOC3)c2OC(C)C)n2ccnc(N)c12; 19
Cc1nc(C(C)c2cc(Cl)c(F)c(C(=O)NC3CC3)c2OC(C)C)n2ccnc(N)c12 (stereo not shown); 6.2
Cc1nc([C@@H](C)c2cc(Cl)c(F)c(C(=O)N3CC4(CCOC4)C3)c2OC(C)C)n2ccnc(N)c12; 23
Cc1nc([C@@H](C)c2cc(Cl)c(F)c(C(=O)NCCN3CCN(C)CC3)c2OC(C)C)n2ccnc(N)c12; 14
Cc1nc([C@@H](C)c2cc(Cl)c(F)c(C(=O)N[C@@H]3CCC[C@H]3O)c2OC(C)C)n2ccnc(N)c12; 16

Query: Given the entry Cc1nc([C@@H](C)c2cc(Cl)c(F)c(C(=O)NCC3CC3)c2OC(C)C)n2ccnc(N)c12 , report its measured IC50.
Reply: 21

Query: So what's the measured IC50 for this one? Cc1nc([C@@H](C)c2cc(Cl)c(F)c(C(=O)N3CC4CCC(C3)O4)c2OC(C)C)n2ccnc(N)c12
Reply: 40

Query: Bench note: what IC50 did Cc1nc([C@@H](C)c2cc(Cl)c(F)c(C(=O)NCC3(O)CC3)c2OC(C)C)n2ccnc(N)c12 show?
Reply: 12

Query: For the compound Cc1nc([C@@H](C)c2cc(Cl)c(F)c(C(=O)NCC3CCN(C)CC3)c2OC(C)C)n2ccnc(N)c12 , what IC50 is on record?
Reply: 14

Query: Could you share which IC50 value was measured for COC1CCN(C(=O)c2c(F)c(Cl)cc([C@H](C)c3nc(C)c4c(N)nccn34)c2OC(C)C)CC1 ?
Reply: 60

Query: Form field: reported IC50 of Cc1nc([C@@H](C)c2cc(Cl)c(F)c(C(=O)N[C@H]3CC[C@@H](O)CC3)c2OC(C)C)n2ccnc(N)c12
Reply: 29
